Just for reference, the Human Domainome abundance scans (Beltran et al. 2025) is where these values come from.

B1: Max-interacting protein 1, residues 70 to 120; numbered along this chain, P50539 (parent)
chain: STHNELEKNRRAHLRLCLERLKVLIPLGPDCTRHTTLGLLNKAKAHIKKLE

variants of: B1; assay: abundance fitness (aPCA) (normalised: wild type 0, dead -1); higher = more abundant; growth selection in yeast, the domain comes from the species named; details: Homo sapiens
measuredAttribute: abundance fitness

Requested field: abundance fitness. Item: R20P
-0.753

Requested field: abundance fitness. Item: R20I
-1.11

Requested field: abundance fitness. Item: H13D
-0.604

Requested field: abundance fitness. Item: L50N
-0.617

Requested field: abundance fitness. Item: N4E
-0.142

Requested field: abundance fitness. Item: L16A
-0.05

Requested field: abundance fitness. Item: L16S
0.218

Requested field: abundance fitness. Item: L39Y
-0.555

Requested field: abundance fitness. Item: E7S
0.06

Requested field: abundance fitness. Item: T35D
-0.377

Requested field: abundance fitness. Item: R33Q
-0.116
